Origin of measurements: patent US5179109A

# system.under.test: cerebral cholinergic muscarinic receptor
# protocol.conditions: rat brain homogenate; read-out: ^3 HQNB IC50
quantity.measured: pIC50
The quantity pIC50 is defined as the negative base-10 logarithm of the molar concentration.

// below: answered compounds
Q: # input compound: C[C@H]1CC[C@@](c2cccc(F)c2)(N2CCCC(CO)C2)CC1 (stereo partly drawn) ; wanted: its pIC50
Ans: 3.12

Q: Next up: CC(=O)OCC1CCCN(C2(c3ccccc3)CCCCC2)C1 (stereo not drawn)
Ans: 3.85

Q: One more compound: O[C@H]1CCCC[C@]1(c1ccccc1)N1CCCCC1 (relative stereo)
Ans: 3.90

Q: Check C[C@H]1CC[C@@](c2cccs2)(N2CCCC(CO)C2)CC1 (stereo partly drawn) too.
Ans: 3.96

Q: What do we get for `C[C@H]1CC[C@](c2cccs2)(N2CCCCC2)CC1` ?
Ans: 4.53

Q: Also c1ccc(C2(N3CCCCC3)CCCCC2)cc1 [PCP, 1-(1-phenylcyclohexyl)-piperidine, reference compound] ?
Ans: 4.52

Q: Input `C1=CCN(C2(c3cccs3)CCCCC2)CC1`
Ans: 4.60

Q: Continue with ClCC1CCCN(C2(c3cccs3)CCCCC2)C1 (stereo not drawn)
Ans: 3.06

Q: Next entry: OCC1CCCN(C2(c3ccccc3)CCCCC2)C1 (stereo not drawn)
Ans: 4.00

Q: Repeat with c1csc(C2(N3CCCCC3)CCCCC2)c1 [TCP, ((2-thienyl)-1 cyclohexyl)-N-piperidine, reference compound]
Ans: 4.68

New cases:
Q: GET /values?readout=pIC50&item= C[C@@H]1CCCC[C@]1(c1cccs1)N1CCCCC1 (relative stereo)
Ans: 4.92

Q: Also check OCC1CCCN(C2(c3cccs3)CCCCC2)C1 (stereo not drawn)
Ans: 4.05

---

# system.under.test: receptor of the opiates (Rattus norvegicus, UniProt P33535)
# Construct: variable concentrations of the tested compound and a rat brain homogenate; from tissue; host or cells: rat brain homogenate
# Sequence (P33535 whole entry): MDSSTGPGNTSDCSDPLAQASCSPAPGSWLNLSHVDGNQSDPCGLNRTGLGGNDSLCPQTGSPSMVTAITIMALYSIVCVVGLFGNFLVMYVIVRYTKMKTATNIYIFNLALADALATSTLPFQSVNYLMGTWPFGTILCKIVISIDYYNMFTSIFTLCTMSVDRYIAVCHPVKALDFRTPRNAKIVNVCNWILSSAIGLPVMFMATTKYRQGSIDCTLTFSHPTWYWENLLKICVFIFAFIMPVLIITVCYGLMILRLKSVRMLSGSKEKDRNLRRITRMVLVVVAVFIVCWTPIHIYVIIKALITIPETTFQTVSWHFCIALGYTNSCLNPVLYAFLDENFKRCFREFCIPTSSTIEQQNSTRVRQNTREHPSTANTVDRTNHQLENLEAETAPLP
# assay.remarks: Competition test with ^3 H-DHM for the receptor of the opiates
# Type: binding
# Protocol: In this test, a fixed concentration of ^3 H-DHM labelled morphine was incubated in the presence of variable concentrations of the tested compound and a rat brain homogenate. The concentration of the compound preventing the fixing of 50% of ^3 H-DHM (IC50) is a measure of the affinity of the compound for the receptor of the opiates. […]
quantity.measured: IC50 (µM)
Only the number, expressed in µM, is required.

Q: Look at this molecule and give its reported IC50. c1ccc(C2(N3CCCCC3)CCCCC2)cc1 [PCP, 1-(1-phenylcyclohexyl)-piperidine, reference compound]
Ans: 26
